Dear all, this message contains AC50 results, target or system UniProt:P21728.
Sequence (P21728 whole entry): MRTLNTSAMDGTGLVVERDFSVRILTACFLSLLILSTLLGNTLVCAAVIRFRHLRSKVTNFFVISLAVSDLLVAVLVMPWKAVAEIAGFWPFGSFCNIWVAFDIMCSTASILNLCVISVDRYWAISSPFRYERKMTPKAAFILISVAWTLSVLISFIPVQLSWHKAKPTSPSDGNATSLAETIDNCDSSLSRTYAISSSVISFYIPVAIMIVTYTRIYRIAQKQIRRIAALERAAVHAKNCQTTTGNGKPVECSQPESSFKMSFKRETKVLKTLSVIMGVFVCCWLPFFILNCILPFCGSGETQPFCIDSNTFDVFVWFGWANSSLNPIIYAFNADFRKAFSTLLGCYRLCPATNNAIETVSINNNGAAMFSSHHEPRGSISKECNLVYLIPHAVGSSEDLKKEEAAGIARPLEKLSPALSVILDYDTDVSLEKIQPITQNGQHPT

Example entries and their recorded answers appear below.
>  <compound>
CN(C)CCCN1C(=O)c2cc([N+](=O)[O-])ccc2Oc2ccccc21

>  <target.system>
UniProt:P21728

>  <AC50>
26 µM

$$$$
>  <compound>
OC(CCCN1CCCCC1)(c1ccccc1)c1ccccc1

>  <target.system>
UniProt:P21728

>  <AC50>
12.5 µM

$$$$
>  <compound>
C[C@H]1O[C@@H](O[C@H]2[C@@H](O)C[C@H](O[C@H]3[C@@H](O)C[C@H](O[C@H]4CC[C@@]5(C)[C@H](CC[C@@H]6[C@@H]5CC[C@]5(C)[C@@H](C7=CC(=O)OC7)CC[C@]65O)C4)O[C@@H]3C)O[C@@H]2C)C[C@H](O)[C@@H]1O

>  <target.system>
UniProt:P21728

>  <AC50>
> 30 µM

$$$$
>  <compound>
N[C@@H](CC(=O)O)C(=O)O

>  <target.system>
UniProt:P21728

>  <AC50>
> 30 µM

$$$$

// field: AC50; key: CC(C)[N+](C)(CCOC(=O)C1c2ccccc2Oc2ccccc21)C(C)C ; value = > 30 µM

// field: AC50; key: C=C1c2c(Cl)ccc(O)c2C(=O)C2=C(O)[C@]3(O)C(=O)C(C(N)=O)=C(O)[C@@H](N(C)C)[C@@H]3[C@@H](O)[C@H]12 ; value = > 30 µM

// field: AC50; key: C[C@@H](O)[C@H]1C(=O)N2C(C(=O)O)=C([C@H]3CCCO3)S[C@H]12 ; value = > 30 µM

// field: AC50; key: CC[N+](C)(CC)CCOC(=O)C1c2ccccc2Oc2ccccc21 ; value = > 30 µM

// field: AC50; key: O=P(O)(O)C(Cl)(Cl)P(=O)(O)O ; value = > 30 µM
